Cited source: patent US4455303A

Reported IC50 by item:
Molecular target: human renin (Homo sapiens, UniProt P00797)
Sequence (P00797 67-406): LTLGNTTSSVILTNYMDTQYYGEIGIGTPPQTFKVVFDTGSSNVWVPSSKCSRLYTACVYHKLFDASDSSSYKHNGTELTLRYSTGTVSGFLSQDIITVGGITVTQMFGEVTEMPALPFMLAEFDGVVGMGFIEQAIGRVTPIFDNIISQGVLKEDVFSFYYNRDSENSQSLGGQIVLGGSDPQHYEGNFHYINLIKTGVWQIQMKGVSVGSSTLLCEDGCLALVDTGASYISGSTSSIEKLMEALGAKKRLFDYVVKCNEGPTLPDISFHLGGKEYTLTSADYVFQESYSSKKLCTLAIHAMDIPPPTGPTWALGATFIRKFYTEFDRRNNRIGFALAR
Experiment: IC50 on human renin, angiotensin I generation from tetradecapeptide renin substrate (assay of Burton et al)
Format: biochemical
Conditions: IC50 (concentration at which inhibition is 50%), Table I; human renin
Where a SMILES comes first, the peptide text is derived from it. [ ]: non-standard residue; d: D form. Phe(4-Cl) = N[C@@H](Cc1ccc(Cl)cc1)C(=O)O
State the answer as a number, implicitly in µM.

Lookup: Please give measured IC50 of the following entry: COc1ccc(C[C@H](NC(=O)[C@@H](N)Cc2ccccc2)C(=O)N[C@H](C(=O)N[C@@H](Cc2ccc(O)cc2)C(=O)N[C@@H](CCCCN)C(N)=O)C(C)C)cc1 [RI-102] (H-FY(Me)VYK-NH2)
Found: 190

Lookup: Please give measured IC50 of the following entry: CC(C)[C@H](NC(=O)[C@H](Cc1ccccc1)NC(=O)[C@@H](N)Cc1ccc(Cl)cc1)C(=O)N[C@@H](Cc1ccc(O)cc1)C(=O)N[C@@H](CCCCN)C(N)=O [RI-78] (H-[Phe(4-Cl)]FVYK-NH2)
Found: 70

* * *

Molecular target: human renin (Homo sapiens, UniProt P00797)
Assay: IC50 on human renin, angiotensin I generation from tetradecapeptide renin substrate (assay of Burton et al)
Assay type: biochemical
Details: IC50; TDP substrate, pH 7.40, 1 hr at 37°
Where a SMILES comes first, the peptide text is derived from it. [ ]: non-standard residue; d: D form. Phe(4-Cl) = N[C@@H](Cc1ccc(Cl)cc1)C(=O)O
Reported IC50 by item:
State the answer as a number, implicitly in µM.

>  <Compound>
CC(C)[C@H](NC(=O)[C@H](Cc1ccccc1)NC(=O)[C@@H](N)Cc1ccc(Cl)cc1)C(=O)N[C@@H](Cc1ccc(O)cc1)C(=O)N[C@@H](CCCCN)C(N)=O [RI-78] (H-[Phe(4-Cl)]FVYK-NH2)

>  <Tested target>
human renin (Homo sapiens, UniProt P00797)

>  <Value kind>
IC50

>  <Value units>
µM

>  <Measured>
70

$$$$

Continue with the compound presented below.
Lookup: Please give measured IC50 of the following entry: CC(C)[C@H](NC(=O)[C@H](Cc1ccccc1)NC(=O)[C@@H](N)Cc1ccccc1)C(=O)N[C@@H](Cc1ccc(Cl)cc1)C(=O)N[C@@H](CCCCN)C(N)=O [RI-85] (H-FFV[Phe(4-Cl)]K-NH2)
Found: 175

* * *

Target: human renin (Homo sapiens)
Assay: IC50 on human renin, angiotensin I generation from tetradecapeptide renin substrate (assay of Burton et al)
Assay type: biochemical
Conditions: Table I; human renin; read-out: IC50 (concentration at which inhibition is 50%)
Where a SMILES comes first, the peptide text is derived from it. [ ]: non-standard residue; d: D form. Phe(4-Cl) = N[C@@H](Cc1ccc(Cl)cc1)C(=O)O
Value kind: IC50 (µM)
State the answer as a number, implicitly in µM.

Lookup: Jot down IC50 (human renin (Homo sapiens)) of CC(C)[C@H](NC(=O)[C@H](Cc1ccc(Cl)cc1)NC(=O)[C@@H](N)Cc1ccccc1)C(=O)N[C@@H](Cc1ccc(O)cc1)C(=O)N[C@@H](CCCCN)C(N)=O [RI-80] (H-F[Phe(4-Cl)]VYK-NH2) .
Found: 40
